Data credit: patent US7417062B2

# TARGET_DESC: CCXCKR2 receptor (Homo sapiens, UniProt P25106)
# Construct: host or cells: MCF-7 (endogenous) and/or MDA-MB-435S transfected with hRDC1 in pcDNA3.1(+)
# Sequence (P25106 whole entry): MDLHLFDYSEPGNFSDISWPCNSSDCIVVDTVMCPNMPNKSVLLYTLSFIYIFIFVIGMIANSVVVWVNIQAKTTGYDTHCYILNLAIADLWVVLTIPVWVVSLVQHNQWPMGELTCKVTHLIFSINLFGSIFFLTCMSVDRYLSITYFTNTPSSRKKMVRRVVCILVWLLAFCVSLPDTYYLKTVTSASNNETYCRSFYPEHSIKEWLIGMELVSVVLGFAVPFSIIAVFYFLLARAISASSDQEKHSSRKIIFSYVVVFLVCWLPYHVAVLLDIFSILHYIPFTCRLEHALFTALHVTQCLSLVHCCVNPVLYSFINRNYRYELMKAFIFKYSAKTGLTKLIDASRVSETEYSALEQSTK
# TEST_DETAILS: Displacement of 125I-labeled SDF-1 from the CCXCKR2 receptor (radioligand binding, determination of IC50 values)
# ASSAY_CONDITIONS: MCF-7 and/or MDA-MB-435S cells expressing CCXCKR2; 125I SDF-1; 3 hr at 4° C.; read-out: Activity (ability to displace 125I SDF-1 from CCXCKR2)
pIC50: −log10 of the molar value.
Please provide measured pIC50 for the entries that follow.

Q: Which pIC50 is listed for COc1ccc(C(=O)N(C[C@@H]2CCCN2CC2CC2)c2cccc(-c3ccc(F)c(Cl)c3)c2)cc1OC ?
A: > 5.00

Q: Moving on to the next compound: COc1cc(C(=O)N(Cc2ccc3cc(Cl)ccc3n2)C[C@@H]2C[C@@H]3CCCC[C@@H]3N2)cc2c1OC(C)(C)O2
A: > 6.30

Q: And then COc1cc(C(=O)N(Cc2cc3ccccc3c[n+]2[O-])C[C@@H]2C[C@@H]3CCCC[C@@H]3N2)cc2c1OC(C)(C)O2 , what is it?
A: > 5.70

Q: Same again, this time with COc1cc(C(=O)N(Cc2csc(-c3ccccc3)n2)C[C@@H]2CCCN2C)cc2c1OC(C)(C)O2
A: > 6.30

Q: What would you report for COc1cc(C(=O)N(Cc2cnc3ccccc3c2)C[C@@H]2CCCN2C2CCC2)cc2c1OC(C)(C)O2 ?
A: > 5.00

Q: Now this one: COc1cc(C(=O)N(Cc2ccc3ccccc3n2)CC2CNC2)cc2c1OC(C)(C)O2
A: > 6.30

Q: Try the compound COc1cc(C(=O)N(Cc2cc3ccccc3nn2)C[C@@H]2CCCN2C2CCC2)cc2c1OC(C)(C)O2
A: > 5.70

Q: Same question, COc1ccc(C(=O)N(Cc2ccc3ccccc3c2)C[C@@H]2CCCN2CC2CCCCC2)cc1OC this time
A: > 6.30

Q: Same for COc1ccc(C(=O)N(C[C@@H]2CCCN2CC2CCCCC2)c2cccc(-n3cccn3)c2)cc1OC
A: > 5.00

Q: Ok, now COc1ccc(C(=O)N(C[C@@H]2CCCN2CC2CCCCC2)c2cccc(-c3ccccc3)c2)cc1OC
A: > 6.30

Q: Repeat with COc1cc(C(=O)N(Cc2ccc3ccccc3n2)C[C@@H]2CCCN2C2CCC2)cc2c1OC(C)(C)O2
A: > 6.30

Q: Please give the result for COc1cc(C(=O)N(C[C@@H]2CCCN2CC2CCCCC2)c2cccc(-c3ccccc3)c2)ccc1OC(F)F too.
A: > 6.30

Q: Same read-out for COc1cc(C(=O)N(CCC2CCCN2C)Cc2ccc3ccccc3n2)cc(OC)c1OC (centres unmarked) ?
A: > 6.30

Q: What do we get for COc1cc(C(=O)N(Cc2cc3ccccc3o2)C[C@@H]2C[C@@H]3CCCC[C@@H]3N2)cc2c1OC(C)(C)O2 ?
A: > 6.30

Q: Param item: COc1cc(C(=O)N(C[C@@H]2CCCN2)c2cccc(-c3ccccc3)c2)ccc1OC(F)F
A: > 6.30

Q: Consider next the compound COc1cc(C(=O)N(Cc2nc(-c3ccccc3)c(C(F)(F)F)s2)C[C@@H]2C[C@@H]3CCCC[C@@H]3N2)cc2c1OC(C)(C)O2 in the same way.
A: > 6.30

Q: Next compound: COc1cc(C(=O)N(Cc2ccc3cccnc3n2)C[C@@H]2C[C@@H]3CCCC[C@@H]3N2)cc2c1OC(C)(C)O2
A: > 6.30

Q: Further, for COc1cc(C(=O)N(CCC2CCCN2C)Cc2nc3ccccc3n2C)cc(OC)c1OC (centres unmarked) ?
A: > 5.00

Q: Try the compound COc1cc(C(=O)N(CCCN2CCCCC2C)Cc2ccc3ccccc3c2)cc(OC)c1OC (centres unmarked)
A: > 6.30

Q: COc1cc(C(=O)N(Cc2cnc3ccccc3c2)C[C@@H]2C[C@@H]3CCCC[C@@H]3N2)cc2c1OC(C)(C)O2 , same question.
A: > 5.70

Q: Param item: COc1ccc(C(=O)N(Cc2nc3ccccc3s2)C[C@@H]2CCCN2CC2CCCCC2)cc1OC
A: > 6.30

Q: What about this compound? COc1cc(C(=O)N(Cc2ccc3ccccc3n2)CC2CN(C)C2)cc2c1OC(C)(C)O2
A: > 6.30

Q: Same again, this time with COc1ccc(C(=O)N(C[C@@H]2CCCN2)c2cccc(-c3ccccc3)c2)cc1OC
A: > 5.70
